# Test system: PPARg:RXRa IVT, anti-PPARg (NR concentration 270 nM, RXRa partner concentration 90 nM)
# experimental.details: PBM binding z-score (relative to random genomic background probes); higher = stronger binding; sequences stand for … in GC…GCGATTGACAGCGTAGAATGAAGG
measurement.name: PBM binding z-score
Answer with the value's number alone.

For orientation, consider the following solved cases.
TCTAGTTGGTCACGGAGTTCACACACGACGGGTA: 2.92
CAAACTAGGTTACCGGAAGGTCAAAGTCCGCATG: 6.8
ATCTCCAGGTAACCAAGTTCAGTGAATGCCGAAC: 1.52
ATATCTAGGTAACCAAGTTCAGTGAATGCCGAAC: 6.81
ATCTCTAGGTAACCACGTTCAGTGAATGCCGAAC: 2.6
AGAACGAGGGCTCGCTGAGTTGATAGCAGAGTAG: -0.495

// CCTCGCAGGACAACAGGAGGTCAGAGCTGCCAGA : PBM binding z-score value = 0.0775

Note to self: PBM binding z-score recorded for CCTACTGGGCCACGAAAGGTCATGGATTCAGTGA was 6.03

Form field PBM binding z-score, entry ATCTCTAAGTAAAAGTTCAGTGAATCCCGAGGAT : 0.598

PBM binding z-score reading for CGTCCAAGGTCAAAGAGGTCAGTGAATGCCGAGT : 4.53
